# measured on: isolated recombinant JAK2 kinase domain (Homo sapiens)
# Construct: The activity of the isolated recombinant JAK1 and JAK2 kinase domain was measured
# Sequence (O60674 849-1124 limits assumed): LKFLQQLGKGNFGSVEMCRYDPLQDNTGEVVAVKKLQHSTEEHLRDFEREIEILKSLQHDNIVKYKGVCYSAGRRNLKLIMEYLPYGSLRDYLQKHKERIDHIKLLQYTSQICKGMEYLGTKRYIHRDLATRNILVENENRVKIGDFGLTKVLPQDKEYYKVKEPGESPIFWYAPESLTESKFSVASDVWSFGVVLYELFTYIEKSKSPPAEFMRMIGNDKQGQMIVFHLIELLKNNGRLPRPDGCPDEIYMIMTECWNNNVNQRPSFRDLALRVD
# assay: JAK2 enzyme assay (Caliper LabChip, Ki)
# measurement setup: 25 μM ATP
pKi: −log10 of the molar value.
property measured: pKi

Reference set, count: 6
compound: CSc1ccc(OC(F)F)c(-c2nn(CC(=O)N3CCC(CN4CCN(C(C)=O)CC4)CC3)cc2NC(=O)c2cnn3cccnc23)c1 [Example 80]
measured on: isolated recombinant JAK2 kinase domain (Homo sapiens)
pKi: 9.37
--
compound: CSc1ccc(OC(F)F)c(-c2nn(CC(=O)N3CCC(CN4CCN(CC(=O)N(C)C)[C@H](C)C4)CC3)cc2NC(=O)c2cnn3cccnc23)c1 [Example 97]
measured on: isolated recombinant JAK2 kinase domain (Homo sapiens)
pKi: 9.21
--
compound: CC(C)Sc1ccc(OC(F)F)c(-c2nn(CC(=O)N3CCC(C(=O)N4CCN(C)CC4)CC3)cc2NC(=O)c2cnn3cccnc23)c1 [Example 137]
measured on: isolated recombinant JAK2 kinase domain (Homo sapiens)
pKi: 8.82
--
compound: CNC(=O)[C@@H]1CCCN1C1CCN(C(=O)Cn2cc(NC(=O)c3cnn4cccnc34)c(-c3cc(SC(C)C)ccc3OC(F)F)n2)CC1 [Example 145]
measured on: isolated recombinant JAK2 kinase domain (Homo sapiens)
pKi: 8.80
--
compound: CN1CCC[C@@H]1Cn1cc(NC(=O)c2cnn3cccnc23)c(-c2cc(SC3COC3)ccc2OC(F)F)n1 [Example 176]
measured on: isolated recombinant JAK2 kinase domain (Homo sapiens)
pKi: 8.85
--
compound: CC(C)(C#N)CNC1CCN(C(=O)Cn2cc(NC(=O)c3cnn4cccnc34)c(-c3cc(SC4COC4)ccc3OC(F)F)n2)CC1 [Example 186]
measured on: isolated recombinant JAK2 kinase domain (Homo sapiens)
pKi: 8.74

(a) CSc1ccc(OC(F)F)c(-c2nn(Cc3cn(C4CCN(C5CCOCC5)CC4)nn3)cc2NC(=O)c2cnn3cccnc23)c1 [Example 81]
(b) COC(=O)N1CCN(CC2CCN(C(=O)Cn3cc(NC(=O)c4cnn5cccnc45)c(-c4cc(SC5CC5)ccc4OC(F)F)n3)CC2)CC1 [Example 173]
Would you kindly point out which of a and b has the smaller pKi figure? Your choice should be expressed through its label.
b

====

# measured on: isolated recombinant JAK2 kinase domain (Homo sapiens)
# Construct: The activity of the isolated recombinant JAK1 and JAK2 kinase domain was measured
# assay: JAK2 enzyme assay (Caliper LabChip, Ki)
# measurement setup: 25 μM ATP
property measured: Ki (nM)

Reference set, count: 2
compound: CSc1ccc(OC(F)F)c(-c2nn(CC(=O)N3CCC(N4CCO[C@@H](CO)C4)CC3)cc2NC(=O)c2cnn3cccnc23)c1 [Example 86]
Ki, nM: 0.42

compound: CSc1ccc(OC(F)F)c(-c2nn(CC(=O)N3CCN(C4CCOC4)CC3)cc2NC(=O)c2cnn3cccnc23)c1 (stereo not shown) [Example 54]
Ki, nM: 0.31

(A) CSc1ccc(OC(F)F)c(-c2nn(CC(=O)N3CCC(N4CCC(C#N)CC4)CC3)cc2NC(=O)c2cnn3cccnc23)c1 [Example 18]
(B) CC(C)Sc1ccc(OC(F)F)c(-c2nn(CC(=O)N3CCC(C)(N4CCOCC4)CC3)cc2NC(=O)c2cnn3cccnc23)c1 [Example 132]
Would you kindly point out which of A and B has the smaller Ki figure? Your choice should be expressed through its label.
A
